Reported Mean relative activity values follow for various molecules
- System: K562 CRISPRi cells
- ASSAY METHOD TEXT: Constant region variant library pooled growth screen, K562
- Type: cell-based, human
- CONDITIONS: sgRNA constant region variants; relative to the original, un-modified constant region cr995; CRISPRi
READOUT LABEL: Mean relative activity

[[record]]
molecule = "cr611 (nucleic acid, listed as DNA, chemistry not fully specified) guide: GTTTAAGAGCTAAGCTGGAAACAGCATAGCAAGTTTAAATAAGGCTAGTCCGTTAGAAACTTGAAAAAGTGGCACCGAATCGGTGCT"
number = 0.4954

[[record]]
molecule = "cr758 (nucleic acid, listed as DNA, chemistry not fully specified) guide: GTTTAAGAGCTAAGCTGGAAACAGCATAGCAAGCTTAAATAAGGCTAGTCCGCTATCAACTTGAAAAAGTGGCACCGAGTCGGTGCT"
number = 0.4614

